# Species on record: Homo sapiens
# experimentSummary: Inhibition of His6-tagged human wild-type PTP catalytic domain at 500 nM using pNPP as substrate incubated for 90 mins by quenched phosphatase activity assay
The source made the active and inactive calls. No cut-off for these calls is given here.
measureName: inhibition

>>> print(df.to_string())
                                givensmiles  measurename  observedmeasurement
0  CC1(C)C(/C=C/C=C/C=C2/N(CCCCS(=O)(=O)O)c3ccc([As]4SCCS4)cc3C2(C)C)=[N+](CCCCS(=O)(=O)O)c2ccc([As]3SCCS3)cc21   inhibition               Active
1  O=C(O)c1ccccc1-c1c2ccc(=O)c([As]3SCCS3)c-2oc2c([As]3SCCS3)c(O)ccc12   inhibition               Active
2  CC1(C)C(/C=C/C=C2/N(CCCCS(=O)(=O)O)c3ccc([As]4SCCS4)cc3C2(C)C)=[N+](CCCCS(=O)(=O)O)c2ccc([As]3SCCS3)cc21   inhibition               Active
3  O=c1ccc2nc3ccc(O)c([As]4SCCS4)c3oc-2c1[As]1SCCS1   inhibition               Active
